molecular target: Virion infectivity factor (Human immunodeficiency virus type 1 group M subtype B (isolate BH10)) + Virion infectivity factor (Human immunodeficiency virus type 1 group M subtype B (isolate BRU/LAI)) + Virion infectivity factor (Human immunodeficiency virus type 1 group M subtype B (isolate PCV12)) + Virion infectivity factor (Human immunodeficiency virus type 1 group M subtype B (isolate HXB2)) + DNA dC->dU-editing enzyme APOBEC-3G (Homo sapiens) (UniProt P69720+P69721+P69722+P69723+Q9HC16); assay: inhibitors of Vif binding to APOBEC3G peptide, primary screen, biochemical, TR-FRET, GST-Vif 1-94, biotin-A3G peptide, dose response retest (AID 1117319); settings: active compounds read high;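 also: Vif residues 1-94 fused to GST binding biotinylated APOBEC3G peptide 110-148; 0% = full assay without inhibitor and 100% = GST in place of GST-Vif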
Among all 260,000 compounds or so, about 1,500 (0.58%) were called active. Not shown: some 5% with an inconclusive outcome. Only a sample is shown. Measured potencies and affinities stand elsewhere.
Measurement Name: inhibition (%)
Answers are plain numbers, in %.

Cc1ccc(C2C3CSCC=C3C(C#N)=C(N)C2(C#N)C#N)cc1 (centres undefined) :: 8.68

For every item below, please supply its inhibition.
1. Cc1ccc(-n2ncc3c(NCc4cccnc4)ncnc32)cc1C
2. Cc1ccc(-c2nnc(SCc3ccc(C#N)cc3)n2Cc2ccco2)cc1
3. CCNS(=O)(=O)c1ccc(CCC(=O)O)cc1
4. O=c1cc(CN2CCCc3ccccc32)nc2sccn12
5. O=C(Nc1ccc(F)cc1Cl)c1ccc2c(=O)n3c(nc2c1)CCC3
6. Cc1nc(Nc2ccccc2)c2oc3ccc(Cl)cc3c2n1

Result:
[-0.06, 21.2, -1.11, 22, 2.76, -10.6]

For every item below, please supply its inhibition.
1. Cc1ccccc1CS(=O)(=O)Cc1ccc(C(=O)NCCCN2CC(C)CC(C)C2)o1 (centres undefined)
2. [O-]/C(=C(\C(=S)Nc1ccc(SC(F)F)cc1)[n+]1ccccc1)c1ccc(Cl)cc1Cl

Result:
1. 28
2. -10.3

For every item below, please supply its inhibition.
1. COc1ccc2c(c1)c(=O)oc1cc(OCC(=O)N3CCCC(C)C3)ccc12 (centres undefined)
2. COc1ccc2c(c1)c(=O)oc1cc(OCC(=O)NC3CC3)ccc12
3. CCNC(=S)NCCN1CCCCC1
4. CSc1nnc(-c2cccc(C)c2)n1N
5. Nc1cc(Cl)ccc1Oc1ccc(Cl)cc1
6. CCOC(=O)c1c(NC(=O)c2cccs2)sc(C)c1CC
7. CCN(CC(=O)NC)S(=O)(=O)c1ccc(Br)cc1

Result:
[-1.48, -2.02, -5.58, -5.45, 14.4, -1.19, 0.33]

For every item below, please supply its inhibition.
1. COc1cc(-c2nnc3n2CCCCC3)cc(OC)c1OC
2. O=C(CC(O)(c1ccccc1)c1ccccc1)Nc1ccccn1
3. N#Cc1ccc(CSc2nnc(-c3ccccc3)n2Cc2ccco2)cc1
4. CCOC(=O)/C=C1\SCC(=O)N1CC(=O)NC(C)c1ccccc1 (centres undefined)
5. CCN(CC(=O)NCc1cccs1)C(=O)c1ccc(S(=O)(=O)Nc2ccccc2Cl)cc1
6. Cc1ccc(SCCOCCN2CCc3ccccc3C2)cc1
7. CSC1=C(C#N)C(c2sccc2C)CC(=O)N1 (centres undefined)
8. N#CC1=C(N)C(C#N)(C#N)C(c2cccnc2)C2COCC=C12 (centres undefined)

Result:
[-1.21, -5.64, 3.24, -4.1, 1.56, -8.65, -3.4, 0.31]
